Test: Guest molecule concentration after incubation in initial medium without polymer (Comparative Example 1)
Assay type: physicochemical
Conditions: 3 h; 37° C.; 0.05% SDS in pH 6.8 phosphate buffer
Protocol: pH 2.0 hydrochloric acid, pH 4.5 acetate, and pH 6.5, pH 6.8, or pH 7.4 phosphate buffer solutions were prepared. […] When the solubility of the target in the initial medium is below the quantitative limit of the analytical method, a small amount of surfactant, such as sodium dodecyl sulfate (SDS), Tween20, or Tween80, can be added appropriately. […]
Given measured Concentration of guest molecule measured after different incubated time, output Satisfied if it is greater than or equal to 6000 ng/mL and Not satisfied if not.

- compound: "CCC(C)n1ncn(-c2ccc(N3CCN(c4ccc(OCC5COC(Cn6cncn6)(c6ccc(Cl)cc6Cl)O5)cc4)CC3)cc2)c1=O (centres unmarked) [Itraconazole, itraconazole]"
  assignedClass: "Not satisfied"
- compound: "C=C(C)[C@@H]1CCC(C)=C[C@H]1c1c(O)cc(CCCCC)cc1O [Cannabidiol]"
  assignedClass: "Satisfied"
- compound: "O=C1[C@H](CC[C@H](O)c2ccc(F)cc2)[C@@H](c2ccc(O)cc2)N1c1ccc(F)cc1 [Ezetimibe]"
  assignedClass: "Satisfied"
- compound: "CCCSc1nc(N[C@@H]2C[C@H]2c2ccc(F)c(F)c2)c2nnn([C@@H]3C[C@H](OCCO)[C@@H](O)[C@H]3O)c2n1 [Ticagrelor]"
  assignedClass: "Satisfied"
- compound: "Cc1cn(-c2cc(NC(=O)c3ccc(C)c(Nc4nccc(-c5cccnc5)n4)c3)cc(C(F)(F)F)c2)cn1 [Nilotinib]"
  assignedClass: "Satisfied"

---

Assay: Binary supramolecular self-assembly systems of polymer and target: guest concentration over incubation time (Comparative Example 2)
Type: physicochemical
Conditions: binary system with 0.5% polymer 102; incubation 3 h
parameterMeasured: Concentration of the target in the solution measured after different incubation time

- compound: "Cc1cn(-c2cc(NC(=O)c3ccc(C)c(Nc4nccc(-c5cccnc5)n4)c3)cc(C(F)(F)F)c2)cn1"
  result: "188.9 µg/mL"
- compound: "CCC(C)n1ncn(-c2ccc(N3CCN(c4ccc(OCC5COC(Cn6cncn6)(c6ccc(Cl)cc6Cl)O5)cc4)CC3)cc2)c1=O (stereo not drawn)"
  result: "34.5 µg/mL"
- compound: "CCc1cc2c(cc1N1CCC(N3CCOCC3)CC1)C(C)(C)c1[nH]c3cc(C#N)ccc3c1C2=O"
  result: "47.5 µg/mL"
- compound: "C=CC[C@@H]1/C=C(\\C)C[C@H](C)C[C@H](OC)[C@H]2O[C@@](O)(C(=O)C(=O)N3CCCC[C@H]3C(=O)O[C@H](/C(C)=C/[C@@H]3CC[C@@H](O)[C@H](OC)C3)[C@H](C)[C@@H](O)CC1=O)[C@H](C)C[C@@H]2OC"
  result: "60.3 µg/mL"
- compound: "O=C1[C@H](CC[C@H](O)c2ccc(F)cc2)[C@@H](c2ccc(O)cc2)N1c1ccc(F)cc1"
  result: "117.2 µg/mL"
- compound: "O=C(O)[C@H]1O[C@@H](Oc2cc3oc(-c4ccc(O)cc4)cc(=O)c3c(O)c2O)[C@H](O)[C@@H](O)[C@@H]1O"
  result: "102.0 µg/mL"

---

Assay: Binary supramolecular self-assembly systems of polymer and target: guest concentration over incubation time (Comparative Example 2)
Format: physicochemical
Conditions: binary system with 0.5% polymer 107; incubation 0.5 h
parameterMeasured: Concentration of the target in the solution measured after different incubation time (µg/mL)

- compound: "O=C1C[C@@H](c2ccc(O)cc2)Oc2cc(O)cc(O)c21 [Naringenin]"
  numericValue: 127.5
- compound: "CC#CC(=O)N1CCC[C@H]1c1nc(-c2ccc(C(=O)Nc3ccccn3)cc2)c2c(N)nccn12 [Acalabrutinib, acalabrutinib]"
  numericValue: 497.8
- compound: "CC(C)OC(=O)CCC/C=C\\C[C@@H]1[C@@H](/C=C/C(F)(F)COc2ccccc2)[C@H](O)C[C@@H]1O [Tafluprost, tafluprost]"
  numericValue: 34.5
- compound: "CCOC(=O)C1=C(C)NC(C)=C(C(=O)OC)C1c1cccc(Cl)c1Cl (stereo not drawn) [Felodipine]"
  numericValue: 51.2
- compound: "CC(=O)c1c(C)c2cnc(Nc3ccc(N4CCNCC4)cn3)nc2n(C2CCCC2)c1=O [Palbociclib]"
  numericValue: 103.5
- compound: "CCCNS(=O)(=O)Nc1ncnc(OCCOc2ncc(Br)cn2)c1-c1ccc(Br)cc1 [Macitentan]"
  numericValue: 46.5
- compound: "Cc1cn(-c2cc(NC(=O)c3ccc(C)c(Nc4nccc(-c5cccnc5)n4)c3)cc(C(F)(F)F)c2)cn1 [Nilotinib]"
  numericValue: 107.2
- compound: "Cc1ccc(-c2cc(C(F)(F)F)nn2-c2ccc(S(N)(=O)=O)cc2)cc1 [Celecoxib]"
  numericValue: 36.4
- compound: "CCC(C)n1ncn(-c2ccc(N3CCN(c4ccc(OCC5COC(Cn6cncn6)(c6ccc(Cl)cc6Cl)O5)cc4)CC3)cc2)c1=O (stereo not drawn) [Itraconazole, itraconazole]"
  numericValue: 13.5
- compound: "C=C(C)[C@@H]1CCC(C)=C[C@H]1c1c(O)cc(CCCCC)cc1O [Cannabidiol]"
  numericValue: 109.6
- compound: "CCc1cc2c(cc1N1CCC(N3CCOCC3)CC1)C(C)(C)c1[nH]c3cc(C#N)ccc3c1C2=O [Alectinib, alectinib]"
  numericValue: 1.5
- compound: "COC(=O)[C@H](c1ccccc1Cl)N1CCc2sccc2C1 [Clopidogrel, clopidogrel]"
  numericValue: 57.0

---

Listed here: items and their measured Concentration of the target in the solution measured after different incubation time.
Test: Binary supramolecular self-assembly systems of polymer and target: guest concentration over incubation time (Comparative Example 2)
Assay type: physicochemical
Details: binary system with 0.5% polymer 106; incubation 6 h
parameterMeasured: Concentration of the target in the solution measured after different incubation time (µg/mL)

- compound: "CNC(=O)c1ccc(N2C(=S)N(c3ccc(C#N)c(C(F)(F)F)c3)C(=O)C2(C)C)cc1F [Enzalutamide]"
  numericValue: 128.2
- compound: "CNC(=O)c1cc(Oc2ccc(NC(=O)Nc3ccc(Cl)c(C(F)(F)F)c3)cc2)ccn1"
  numericValue: 310.3
- compound: "CC1(C)CCC(CN2CCN(c3ccc(C(=O)NS(=O)(=O)c4ccc(NCC5CCOCC5)c([N+](=O)[O-])c4)c(Oc4cnc5[nH]ccc5c4)c3)CC2)=C(c2ccc(Cl)cc2)C1"
  numericValue: 156.8
- compound: "O=C1C[C@@H](c2ccc(O)cc2)Oc2cc(O)cc(O)c21"
  numericValue: 478.8

---

Assay: Binary supramolecular self-assembly systems of polymer and target: guest concentration over incubation time (Comparative Example 2)
Format: physicochemical
Settings: binary system with 0.5% polymer 110; incubation 6 h
Procedure: Experiments were conducted according to the steps in Comparative Example 1, and quantitative analysis was carried out using the analytical method for each target to investigate the regulation ability […] stacking.
parameterMeasured: Concentration of the target in the solution measured after different incubation time (ng/mL)

- molecule: "CCCSc1nc(N[C@@H]2C[C@H]2c2ccc(F)c(F)c2)c2nnn([C@@H]3C[C@H](OCCO)[C@@H](O)[C@H]3O)c2n1 [Ticagrelor]"
  numericValue: 19100
- molecule: "CCCNS(=O)(=O)Nc1ncnc(OCCOc2ncc(Br)cn2)c1-c1ccc(Br)cc1 [Macitentan]"
  numericValue: 33500
- molecule: "CCCCC1OC(=O)c2ccccc21 (stereo not drawn) [Butylphthalide]"
  numericValue: 252100
- molecule: "CC#CC(=O)N1CCC[C@H]1c1nc(-c2ccc(C(=O)Nc3ccccn3)cc2)c2c(N)nccn12 [Acalabrutinib, acalabrutinib]"
  numericValue: 460800
- molecule: "Cc1ccc(-c2cc(C(F)(F)F)nn2-c2ccc(S(N)(=O)=O)cc2)cc1 [Celecoxib]"
  numericValue: 4800
- molecule: "CNC(=O)c1ccc(N2C(=S)N(c3ccc(C#N)c(C(F)(F)F)c3)C(=O)C2(C)C)cc1F [Enzalutamide]"
  numericValue: 43000
- molecule: "O=C1C[C@@H](c2ccc(O)cc2)Oc2cc(O)cc(O)c21 [Naringenin]"
  numericValue: 77600
- molecule: "COC(=O)[C@H](c1ccccc1Cl)N1CCc2sccc2C1 [Clopidogrel, clopidogrel]"
  numericValue: 64400
- molecule: "CCc1cc2c(cc1N1CCC(N3CCOCC3)CC1)C(C)(C)c1[nH]c3cc(C#N)ccc3c1C2=O [Alectinib, alectinib]"
  numericValue: 1300

---

Parameter: Concentration of the target in the solution measured after different incubation time. Scope: all listed entries.
Assay: Binary supramolecular self-assembly systems of polymer and target: guest concentration over incubation time (Comparative Example 2)
Type: physicochemical
Details: binary system with 0.5% polymer 101; incubation 6 h
parameterMeasured: Concentration of the target in the solution measured after different incubation time (µg/mL)

- compound: "C=CC[C@@H]1/C=C(\\C)C[C@H](C)C[C@H](OC)[C@H]2O[C@@](O)(C(=O)C(=O)N3CCCC[C@H]3C(=O)O[C@H](/C(C)=C/[C@@H]3CC[C@@H](O)[C@H](OC)C3)[C@H](C)[C@@H](O)CC1=O)[C@H](C)C[C@@H]2OC"
  numericValue: 161.3
- compound: "CC(=O)c1c(C)c2cnc(Nc3ccc(N4CCNCC4)cn3)nc2n(C2CCCC2)c1=O"
  numericValue: 85.5
- compound: "CCCCC1OC(=O)c2ccccc21 (stereo not shown) [Butylphthalide]"
  numericValue: 230.7
- compound: "C=CC(=O)N1CCC[C@@H](n2nc(-c3ccc(Oc4ccccc4)cc3)c3c(N)ncnc32)C1"
  numericValue: 95.3
- compound: "O=C(O)[C@H]1O[C@@H](Oc2cc3oc(-c4ccc(O)cc4)cc(=O)c3c(O)c2O)[C@H](O)[C@@H](O)[C@@H]1O"
  numericValue: 110.2
- compound: "Cc1ccc(-c2cc(C(F)(F)F)nn2-c2ccc(S(N)(=O)=O)cc2)cc1"
  numericValue: 54.4
- compound: "COc1cc2nccc(Oc3ccc(NC(=O)NC4CC4)c(Cl)c3)c2cc1C(N)=O"
  numericValue: 28.6
